# Assay details: Plasma pharmacokinetics of atogepant
# Format: in vivo, human
# Experimental context: male, human, plasma, po, 50 mg
Value type: AUC(0-inf) (ng·h/mL)
Give bare numbers, in ng·h/mL.

### Prompt Need AUC(0-inf) of C[C@@H]1[C@H](c2c(F)ccc(F)c2F)C[C@H](NC(=O)c2cnc3c(c2)C[C@@]2(C3)C(=O)Nc3ncccc32)C(=O)N1CC(F)(F)F , thanks.
### Response 2220

###

# Assay details: Metabolite profiling in plasma, urine and feces
# Format: in vivo, human
# Experimental context: human, feces, oral, 50 mg, Share of fecal radioactivity recovery; unabsorbed drug, biliary excretion, and/or intestinal secretion
Value type: dose excreted

### Prompt Need dose excreted of C[C@@H]1[C@H](c2c(F)ccc(F)c2F)C[C@H](NC(=O)c2cnc3c(c2)C[C@@]2(C3)C(=O)Nc3ncccc32)C(=O)N1CC(F)(F)F [Atogepant] , thanks.
### Response ~52%

src = paper PMC12584159
